# Study System: recombinant human cGAS (aa147-522) (Homo sapiens)
# Construct: recombinant human cGAS (aa147-522); His6-SUMO (cleaved yes); made in house; host or cells: E. coli BL21/pLys
# Assay Method Text: In vitro inhibition assay of cGAS activity (ATP consumption, KinaseGlo Max)
# Format: biochemical
# Condition Description: Table 2, read-out: cGAS Inhibition Results IC50
pIC50: −log10 of the molar value.
Reported pIC50 values for a set of compounds

Some compounds with known pIC50 results, for comparison:
- Compound: "CN(C)C(=O)[C@@H]1CCCN1c1cc(-n2ccnc2)c2ccc(Cl)c(Cl)c2n1 [I-453]"
  pIC50: "< 4.52"
- Compound: "COC[C@@H]1CCCN1c1cc(-n2ccnc2)c2ccc(Cl)c(Cl)c2n1 [I-147]"
  pIC50: "> 5.70"
- Compound: "O=P(O)(O)OCC1CCCN(c2cc(-n3ccnc3)c3ccc(Cl)c(Cl)c3n2)C1 (stereo not shown) [I-113]"
  pIC50: "> 5.70"
- Compound: "Clc1ccc2c(-c3cn[nH]c3)cc(N(CCN3CCOCC3)Cc3ccccc3)nc2c1Cl [I-216]"
  pIC50: "4.52 to 5.70"
- Compound: "O=C(Nc1ccccc1)[C@@H]1CCCN1c1cc(-n2ccnc2)c2ccc(Cl)c(Cl)c2n1 [I-348]"
  pIC50: "< 4.52"

Data request: Field request: pIC50 | item: O=S(=O)(NC1CCCN(c2cc(-n3ccnc3)c3ccc(Cl)cc3n2)C1)C1CC1 (stereo not shown) [I-100]
Data returned: > 5.70

Data request: Field request: pIC50 | item: O=C1CCN(c2cc(-n3ccnc3)c3ccc(Cl)c(Cl)c3n2)CCN1 [I-88]
Data returned: 4.52 to 5.70

Data request: Field request: pIC50 | item: OCC(CO)Nc1cc(-n2ccnc2)c2ccc(Cl)c(Cl)c2n1 [I-249]
Data returned: > 5.70

Data request: Field request: pIC50 | item: Cn1cnc(S(=O)(=O)NC2CCCN(c3cc(-n4ccnc4)c4ccc(Cl)cc4n3)C2)c1 (stereo not shown) [I-103]
Data returned: 4.52 to 5.70

Data request: Field request: pIC50 | item: O=C(O)CNc1cc(-c2cn[nH]c2)nc2c(Cl)cc(Cl)cc12 [I-288]
Data returned: > 5.70

---

# Study System: recombinant human cGAS (aa147-522) (Homo sapiens, UniProt Q8N884)
# Construct: recombinant human cGAS (aa147-522); His6-SUMO (cleaved yes); made in house; host or cells: E. coli BL21/pLys
# Sequence (Q8N884 147-522): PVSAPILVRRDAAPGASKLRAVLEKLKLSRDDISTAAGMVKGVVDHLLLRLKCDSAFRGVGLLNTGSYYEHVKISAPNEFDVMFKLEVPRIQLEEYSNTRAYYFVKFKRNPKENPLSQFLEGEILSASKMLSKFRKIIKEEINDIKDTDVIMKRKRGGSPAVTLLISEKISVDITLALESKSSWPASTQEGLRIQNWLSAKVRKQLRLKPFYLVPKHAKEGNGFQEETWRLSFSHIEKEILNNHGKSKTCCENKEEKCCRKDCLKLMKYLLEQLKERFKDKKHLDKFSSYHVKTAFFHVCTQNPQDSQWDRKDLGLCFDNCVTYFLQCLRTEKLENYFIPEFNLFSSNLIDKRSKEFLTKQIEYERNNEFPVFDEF
# Assay Method Text: In vitro inhibition assay of cGAS activity (ATP consumption, KinaseGlo Max)
# Format: biochemical
# Condition Description: Table 3, read-out: cGAS Inhibition Results IC50
Reported Metric: IC50

- Compound: "O=C(O)CCOC[C@@H]1CCC(=O)N1c1cc(-n2ccnc2)c2ccc(Cl)c(Cl)c2n1"
  IC50: "< 2 µM"
- Compound: "O=C(O)CCOC[C@@H]1CCCN1c1cc(-c2cn[nH]c2)c2cc(Cl)cc(Cl)c2n1"
  IC50: "< 2 µM"

Data request: IC50 of `CN(CCNC(=O)CO)c1cc(-n2ccnc2)c2ccc(Cl)c(Cl)c2n1` on recombinant human cGAS (aa147-522) (Homo sapiens, UniProt Q8N884)?
Data returned: < 2 µM

Data request: IC50 of `OCCCOCC[C@@H]1CCCN1c1cc(-n2ccnc2)c2ccc(Cl)c(Cl)c2n1` on recombinant human cGAS (aa147-522) (Homo sapiens, UniProt Q8N884)?
Data returned: < 2 µM

Data request: IC50 of `NC(=O)[C@@H]1[C@@H](O)CCN1c1cc(-n2ccnc2)c2ccc(Cl)c(Cl)c2n1` on recombinant human cGAS (aa147-522) (Homo sapiens, UniProt Q8N884)?
Data returned: < 2 µM

Data request: IC50 of `CN(CCCOCCC(=O)O)c1cc(-n2ccnc2)c2ccc(Cl)c(Cl)c2n1` on recombinant human cGAS (aa147-522) (Homo sapiens, UniProt Q8N884)?
Data returned: < 2 µM

Data request: IC50 of `COC(=O)[C@@H]1[C@@H]2C[C@@H]2CN1c1cc(-n2ccnc2)c2ccc(Cl)c(Cl)c2n1` on recombinant human cGAS (aa147-522) (Homo sapiens, UniProt Q8N884)?
Data returned: 2 to 30 µM

Data request: IC50 of `CC1(C)C[C@@H](C(=O)O)N(c2cc(-n3ccnc3)c3ccc(Cl)c(Cl)c3n2)C1` on recombinant human cGAS (aa147-522) (Homo sapiens, UniProt Q8N884)?
Data returned: < 2 µM

Data request: IC50 of `CC(C)(C)O[C@@H]1C[C@@H](COCCC(=O)O)N(c2cc(-n3ccnc3)c3ccc(Cl)c(Cl)c3n2)C1` on recombinant human cGAS (aa147-522) (Homo sapiens, UniProt Q8N884)?
Data returned: < 2 µM

Data request: IC50 of `O=C(O)[C@@H]1C[C@@H](OC(=O)N2CCOCC2)CN1c1cc(-n2ccnc2)c2ccc(Cl)c(Cl)c2n1` on recombinant human cGAS (aa147-522) (Homo sapiens, UniProt Q8N884)?
Data returned: 2 to 30 µM

Data request: IC50 of O=C(O)C1CCCCC1OC[C@@H]1CCCN1c1cc(-n2ccnc2)c2ccc(Cl)c(Cl)c2n1 (stereo partly shown) on recombinant human cGAS (aa147-522) (Homo sapiens, UniProt Q8N884)?
Data returned: < 2 µM

Data request: IC50 of `O=C(O)C[C@H]1CCCN1c1cc(-n2ccnc2)c2ccc(Cl)c(Cl)c2n1` on recombinant human cGAS (aa147-522) (Homo sapiens, UniProt Q8N884)?
Data returned: < 2 µM

Data request: IC50 of `COC(=O)C12CC(C)(CN1c1cc(-n3ccnc3)c3ccc(Cl)c(Cl)c3n1)C2` on recombinant human cGAS (aa147-522) (Homo sapiens, UniProt Q8N884)?
Data returned: > 30 µM

Data request: IC50 of `CC(C)(C)OC(=O)[C@@H]1CCCN1c1cc(-n2ccnc2)c2ccc(Cl)c(Cl)c2n1` on recombinant human cGAS (aa147-522) (Homo sapiens, UniProt Q8N884)?
Data returned: 2 to 30 µM

Data request: IC50 of `NC(=O)CCNC(=O)[C@@H]1CCCN1c1cc(-n2ccnc2)c2ccc(Cl)c(Cl)c2n1` on recombinant human cGAS (aa147-522) (Homo sapiens, UniProt Q8N884)?
Data returned: 2 to 30 µM

Data request: IC50 of `CC1(C)C[C@@H](COCCC(=O)O)N(c2cc(-n3ccnc3)c3ccc(Cl)c(Cl)c3n2)C1` on recombinant human cGAS (aa147-522) (Homo sapiens, UniProt Q8N884)?
Data returned: < 2 µM

Data request: IC50 of `O=C(O)[C@@H]1C[C@H](OC(=O)N2CCOCC2)CN1c1cc(-n2ccnc2)c2ccc(Cl)c(Cl)c2n1` on recombinant human cGAS (aa147-522) (Homo sapiens, UniProt Q8N884)?
Data returned: < 2 µM

Data request: IC50 of `O=C(O)[C@@H]1CN(c2cc(-n3ccnc3)c3ccc(Cl)c(Cl)c3n2)CCO1` on recombinant human cGAS (aa147-522) (Homo sapiens, UniProt Q8N884)?
Data returned: < 2 µM

Data request: IC50 of `O=C(O)CCOC[C@@H]1C[C@@H]2C[C@@H]2N1c1cc(-n2ccnc2)c2ccc(Cl)c(Cl)c2n1` on recombinant human cGAS (aa147-522) (Homo sapiens, UniProt Q8N884)?
Data returned: < 2 µM

Data request: IC50 of `Cc1ccc(-c2cc(-n3ccnc3)c3ccc(Cl)c(Cl)c3n2)cc1COCCC(=O)O` on recombinant human cGAS (aa147-522) (Homo sapiens, UniProt Q8N884)?
Data returned: < 2 µM

Data request: IC50 of `O=C(O)CCOC[C@H]1CCN(c2cc(-n3ccnc3)c3ccc(Cl)c(Cl)c3n2)C1` on recombinant human cGAS (aa147-522) (Homo sapiens, UniProt Q8N884)?
Data returned: 2 to 30 µM

Data request: IC50 of `CO[C@@H]1C[C@@H](COCCC(=O)O)N(c2cc(-n3ccnc3)c3ccc(Cl)c(Cl)c3n2)C1` on recombinant human cGAS (aa147-522) (Homo sapiens, UniProt Q8N884)?
Data returned: < 2 µM
